Each recorded value in this set is attributed to patent US4450269A.

tested on: Botrytis cinerea; assay: Spore germination test; type: cell-based; settings: BC, 1.0 ppm, 48 hours
property.measured: Spore Germination Rating

>>> df
                                   molecule      study_system         property_measured      result
0  CC(=O)c1ccc(Oc2nsnc(Cl)c2=O)cc1 [Compound 47]  Botrytis cinerea  Spore Germination Rating  4 (80-100)
1  CC(C)(C)c1ccc(Oc2nsnc(Cl)c2=O)cc1 [Compound 4]  Botrytis cinerea  Spore Germination Rating  4 (80-100)
2  O=c1c(Cl)nsnc1Oc1cccc(C(F)(F)F)c1 [Compound 44]  Botrytis cinerea  Spore Germination Rating  4 (80-100)
3  Cc1cc(C)cc(Oc2nsnc(Cl)c2=O)c1 [Compound 25]  Botrytis cinerea  Spore Germination Rating   2 (40-60)

* * *

tested on: Alternaria solani; assay: Spore germination test; format: cell-based; settings: AS, 40 ppm, 48 hours
# key: entry, value: Spore Germination Rating
property.measured: Spore Germination Rating

>>> df
                                   compound         property_measured      result
0  CCCCNC(=O)n1c(NC(=O)OC)nc2ccccc21 [Benomyl, reference compound]  Spore Germination Rating  4 (80-100)
1              Cc1cc(Cl)ccc1Oc1nsnc(Cl)c1=O  Spore Germination Rating    0 (0-10)
2          CC(=O)Nc1cccc(Oc2nsnc(Cl)c2=O)c1  Spore Germination Rating   2 (40-60)
3         CC(C)(C)c1ccc(Oc2nsnc(Cl)c2=O)cc1  Spore Germination Rating  4 (80-100)
4           Cc1cc(Cl)c(Oc2nsnc(Cl)c2=O)cc1C  Spore Germination Rating    0 (0-10)
5           O=C(O)c1ccc(Oc2nsnc(Cl)c2=O)cc1  Spore Germination Rating  4 (80-100)
6          CC(=O)Nc1ccc(Oc2nsnc(Cl)c2=O)cc1  Spore Germination Rating    0 (0-10)
7               Cc1cccc(C)c1Oc1nsnc(Cl)c1=O  Spore Germination Rating    0 (0-10)
8                Cc1cccc(Oc2nsnc(Cl)c2=O)c1  Spore Germination Rating    0 (0-10)
9     COc1cc(Oc2nsnc(Cl)c2=O)cc(OC)c1C(C)=O  Spore Germination Rating   2 (40-60)

* * *

test system: Botrytis cinerea; experiment: Spore germination test; format: cell-based; conditions: BC, 40 ppm, 48 hours
Parameter: Spore Germination Rating. Scope: all listed entries.
property.measured: Spore Germination Rating

                        molecule    result
0  N#CCc1ccc(Oc2nsnc(Cl)c2=O)cc1  0 (0-10)
1       Cc1ccccc1Oc1nsnc(Cl)c1=O  0 (0-10)
2        O=c1c(Cl)nsnc1Oc1ccccc1  0 (0-10)

* * *

tested on: Cladosporium cucumerinum; assay: Mycelial growth test; type: cell-based; conditions: Cladosporium cucumerinum, 72 h, CC, 10 ppm, read-out: Percent Fungus Growth Inhibition
property.measured: inhibition at 10 ppm (%)

>>> print(df.to_string())
                                    compound     property_measured  quantitative_readout
 0  CS(=O)(=O)c1ccc(Oc2nsnc(Cl)c2=O)cc1 [Compound 41]  inhibition at 10 ppm                    32
 1  O=C(O)c1ccc(Oc2nsnc(Cl)c2=O)cc1 [Compound 50]  inhibition at 10 ppm                    54
 2  CC(=O)Nc1ccc(Oc2nsnc(Cl)c2=O)cc1 [Compound 8]  inhibition at 10 ppm                    58
 3    Cc1ccccc1Oc1nsnc(Cl)c1=O [Compound 22]  inhibition at 10 ppm                    46
 4  O=c1c(Cl)nsnc1Oc1c(Cl)c(Cl)c(Cl)c(Cl)c1Cl [Compound 31]  inhibition at 10 ppm                    57
 5  O=C(OCc1ccccc1)Oc1ccc(Oc2nsnc(Cl)c2=O)cc1 [Compound 38]  inhibition at 10 ppm                     0
 6  CC(=O)c1ccc(Oc2nsnc(Cl)c2=O)cc1 [Compound 47]  inhibition at 10 ppm                    38
 7  O=C(O)Cc1ccccc1Oc1nsnc(Cl)c1=O [Compound 45]  inhibition at 10 ppm                     0
 8  COc1ccc(Cl)c(Oc2nsnc(Cl)c2=O)c1 [Compound 51]  inhibition at 10 ppm                    26
 9   O=c1c(Cl)nsnc1Oc1ccccc1Br [Compound 34]  inhibition at 10 ppm                    28
10  Cc1cc(Oc2nsnc(Cl)c2=O)cc(C)c1Cl [Compound 59]  inhibition at 10 ppm                    42
11  Cc1cccc(C)c1Oc1nsnc(Cl)c1=O [Compound 24]  inhibition at 10 ppm                    65
12  Cc1cc(Cl)ccc1Oc1nsnc(Cl)c1=O [Compound 55]  inhibition at 10 ppm                    11
13  O=c1c(Cl)nsnc1Oc1cccc(C(F)(F)F)c1 [Compound 44]  inhibition at 10 ppm                    56
